System: NCI-H460 lung
assayOverview: NCI tumour cell line growth inhibition, 48 h
attributeMeasured: TGI (µM)
The figure you give is taken to be in µM; do not add the unit.

compoundstructure=O=C1c2c(c3c4ccccc4[nH]c3c3[nH]c4ccccc4c23)C(=O)N1Cc1ccccc1 datavalue=13.5
compoundstructure=COC(=O)/C(=C\c1c(-c2ccccc2)[nH]c2ccccc12)S(C)(=O)=O datavalue=14.2
compoundstructure=C=CCn1c(-c2ccc(Cl)cc2Cl)csc1=Nc1c(C)n(C)n(-c2ccccc2)c1=O datavalue=27.1

# next compound below
Value lookup for TGI; key = CN(C)CCOc1ccc(-c2cc(-c3ccc4c(c3)CC/C4=N\O)c(-c3ccncc3)o2)cc1
3.95

Data origin: PubChem BioAssay (NCI)
